These measurements were taken from patent US11311520B2.

biological target: human full-length MKNK1 (Homo sapiens (Human), UniProt Q9BUB5, T344D); experiment: MKNK1 kinase high ATP assay (TR-FRET); format: biochemical; settings: 2 mM ATP, 15 min preincubation with enzyme, GST-MKNK1 (T344D)
Sequence (Q9BUB5 other isoform, or with tags, fused parts or gaps T344D): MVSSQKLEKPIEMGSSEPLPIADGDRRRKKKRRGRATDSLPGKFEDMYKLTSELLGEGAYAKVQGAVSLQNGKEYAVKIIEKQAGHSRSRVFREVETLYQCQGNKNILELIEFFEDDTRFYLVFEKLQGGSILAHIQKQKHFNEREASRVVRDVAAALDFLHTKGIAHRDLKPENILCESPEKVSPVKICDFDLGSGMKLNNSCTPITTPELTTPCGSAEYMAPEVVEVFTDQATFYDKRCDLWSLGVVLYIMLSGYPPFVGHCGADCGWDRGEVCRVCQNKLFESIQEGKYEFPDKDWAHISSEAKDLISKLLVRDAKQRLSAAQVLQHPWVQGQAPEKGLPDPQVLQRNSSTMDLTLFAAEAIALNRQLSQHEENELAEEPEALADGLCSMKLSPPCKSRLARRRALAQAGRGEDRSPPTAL
pIC50: −log10 of the molar value.
endpoint: pIC50

compound=Cc1cc(Nc2ncnc3cccc(C)c23)c(=O)n2c1C(=O)NC21CSC1 endpoint=pIC50 resultnumber=7.89
compound=Cc1cc(Nc2ncnc3c(F)cccc23)c(=O)n2c1C(=O)NC21CCCCC1 endpoint=pIC50 resultnumber=6.29
compound=Cc1cc(Nc2ncnc3sc(C(=O)O)c(C)c23)c(=O)n2c1C(=O)NC21CCCC1 endpoint=pIC50 resultnumber=8.24
compound=Cc1cc(Nc2ncnc3sc(C(=O)N4CC(N)C4)cc23)c(=O)n2c1C(=O)NC21CCCCC1 endpoint=pIC50 resultnumber=9.22
compound=Cc1cc(Nc2ncnc3sc(C(=O)O)cc23)c(=O)n2c1C(=O)NC21CCC1 endpoint=pIC50 resultnumber=7.73
compound=Cc1cc(Nc2ncnc3c2CN(S(=O)(=O)C(F)F)C3)c(=O)n2c1C(=O)NC21CCCCC1 endpoint=pIC50 resultnumber=7.23
compound=Cc1cc(Nc2ncnc3cc(Cl)ccc23)c(=O)n2c1C(=O)NC21CS(=O)(=O)C1 endpoint=pIC50 resultnumber=6.98
compound=Cc1cc(Nc2ncnc(NC(=O)C3CC3)n2)c(=O)n2c1C(=O)NC21CCCC1 endpoint=pIC50 resultnumber=8.62
compound=Cc1cc(Nc2ncnc3c(F)c(F)ccc23)c(=O)n2c1C(=O)NC21CCCCC1 endpoint=pIC50 resultnumber=6.68
compound=Cc1cc(Nc2ncnc3[nH]ccc23)c(=O)n2c1C(=O)NC21CCCCC1 endpoint=pIC50 resultnumber=9.52
compound=Cc1cc(Nc2ncnc3sc(C(=O)O)c(C)c23)c(=O)n2c1C(=O)NC21CCC1 endpoint=pIC50 resultnumber=7.80
compound=Cc1cc(Nc2ncnc3scnc23)c(=O)n2c1C(=O)NC21CCC(F)(F)CC1 endpoint=pIC50 resultnumber=6.73
compound=Cc1cc(Nc2ncnc3[nH]ncc23)c(=O)n2c1C(=O)NC21CCCCC1 endpoint=pIC50 resultnumber=8.70
compound="Cc1cc(Nc2ncnc3c2ncn3CC(C)O)c(=O)n2c1C(=O)NC21CCCCC1 (racemic)" endpoint=pIC50 resultnumber=6.13
compound=Cc1cc(Nc2ncnc3[nH]cnc23)c(=O)n2c1C(=O)NC21CCC1 endpoint=pIC50 resultnumber=8.68
compound=Cc1cc(Nc2ncnc3sc(C(=O)N4CC(NC(=O)OC(C)(C)C)C4)cc23)c(=O)n2c1C(=O)NC21CCC(F)(F)CC1 endpoint=pIC50 resultnumber=7.91
compound=Cc1cc(Nc2ncnc3scnc23)c(=O)n2c1C(=O)NC21CCCC1 endpoint=pIC50 resultnumber=7.15
compound=Cc1cc(Nc2ncnc3sc(C(=O)N4CC(N)C4)cc23)c(=O)n2c1C(=O)NC21CCC(F)(F)CC1 endpoint=pIC50 resultnumber=7.97
compound=Cc1cc(Nc2ncnc3sc(C(=O)N4C[C@H]5C[C@@H]4CO5)cc23)c(=O)n2c1C(=O)NC21CCCC1 endpoint=pIC50 resultnumber=8.41
compound=Cc1cc(Nc2ncnc3sc(C(=O)N4CC(NC(=O)OC(C)(C)C)C4)cc23)c(=O)n2c1C(=O)NC2(C)C endpoint=pIC50 resultnumber=7.62
compound=Cc1cc(Nc2ncnc3c2CN(S(=O)(=O)C(F)(F)F)C3)c(=O)n2c1C(=O)NC21CCCCC1 endpoint=pIC50 resultnumber=7.52
compound=Cc1cc(Nc2ncnc3ccc(Cl)cc23)c(=O)n2c1C(=O)NC21CCCCC1 endpoint=pIC50 resultnumber=8.39
compound=Cc1cc(Nc2ncnc3c2ncn3CC(=O)O)c(=O)n2c1C(=O)NC21CCCCC1 endpoint=pIC50 resultnumber=7.53
compound=Cc1cc(Nc2ncnc3sc(C(N)=O)cc23)c(=O)n2c1C(=O)NC21CCCC1 endpoint=pIC50 resultnumber=8.24
compound=Cc1cc(Nc2ncnc(N)n2)c(=O)n2c1C(=O)NC21CCC(F)(F)CC1 endpoint=pIC50 resultnumber=7.56
compound=Cc1cc(Nc2ccnc3ccccc23)c(=O)n2c1C(=O)NC21CCCCC1 endpoint=pIC50 resultnumber=6.51
compound=COc1ccc2ncnc(Nc3cc(C)c4n(c3=O)C3(CCCCC3)NC4=O)c2c1 endpoint=pIC50 resultnumber=7.90
compound=Cc1cc(Nc2ncnc3sc(C(=O)NCCN(C)C)cc23)c(=O)n2c1C(=O)NC21CCCCC1 endpoint=pIC50 resultnumber=8.72
compound=Cc1cc(Nc2ncnc3sc(C(N)=O)cc23)c(=O)n2c1C(=O)NC21CCCCC1 endpoint=pIC50 resultnumber=8.29
compound=Cc1ccc2ncnc(Nc3cc(C)c4n(c3=O)C3(CCCCC3)NC4=O)c2c1 endpoint=pIC50 resultnumber=7.88
compound=Cc1cc(Nc2ncnc3c2CNC3)c(=O)n2c1C(=O)NC21CCC(F)(F)CC1 endpoint=pIC50 resultnumber=7.33
compound=Cc1cc(Nc2ncnc3cccc(C)c23)c(=O)n2c1C(=O)NC21CCC1 endpoint=pIC50 resultnumber=8.28
compound=Cc1cc(Nc2ncnc3sc(C(=O)O)c(C)c23)c(=O)n2c1C(=O)NC2(C)C endpoint=pIC50 resultnumber=6.94

---

biological target: human full-length MKNK1 (Homo sapiens (Human), UniProt Q9BUB5, T344D); assay: MKNK1 kinase high ATP assay (TR-FRET); type: biochemical; conditions: 2 mM ATP, 15 min preincubation with enzyme, GST-MKNK1 (T344D)
pIC50: −log10 of the molar value.
endpoint: pIC50

smilesstr=Cc1cc(Nc2ncnc3ccc(F)cc23)c(=O)n2c1C(=O)NC21CCCCC1 resultnumber=7.81
smilesstr=Cc1cc(Nc2ncnc3c2CN(C(=O)OC(C)(C)C)C3)c(=O)n2c1C(=O)NC21CCCC1 resultnumber=8.33
smilesstr=Cc1cc(Nc2ncnc3[nH]cnc23)c(=O)n2c1C(=O)NC21CCC(F)(F)CC1 resultnumber=8.46
smilesstr=Cc1cc(Nc2ncnc3sc(C(=O)N4CCC(N(C)C)CC4)c(C)c23)c(=O)n2c1C(=O)NC21CCCCC1 resultnumber=7.45
smilesstr=Cc1cc(Nc2ncnc3sccc23)c(=O)n2c1C(=O)NC21CCCC1 resultnumber=10.00
smilesstr=Cc1cc(Nc2ncnc3sc(C(=O)O)cc23)c(=O)n2c1C(=O)NC21CCCC1 resultnumber=7.73
smilesstr=Cc1cc(Nc2ncnc3sc(C(=O)N(C)CCN(C)C)cc23)c(=O)n2c1C(=O)NC21CCCC1 resultnumber=8.20
smilesstr=Cc1cc(Nc2ccnc3[nH]cnc23)c(=O)n2c1C(=O)NC21CCCCC1 resultnumber=8.21

---

target: human full-length MKNK1 (Homo sapiens (Human), UniProt Q9BUB5, T344D); assay: MKNK1 kinase high ATP assay (TR-FRET); type: biochemical; details: 2 mM ATP, 15 min preincubation with enzyme, GST-MKNK1 (T344D), hydrochloride
pIC50: −log10 of the molar value. Counter-ions that a name gives are not always drawn.
endpoint: pIC50

compound="Cc1cc(Nc2ncnc3sc(C(=O)N(C)C)cc23)c(=O)n2c1C(=O)NC21CCCCC1 [Example 33, hydrochloride]" resultnumber=7.15
compound="Cc1cc(Nc2ncnc3sccc23)c(=O)n2c1C(=O)NC21CCCCC1 [Example 31, hydrochloride]" resultnumber=7.77
compound="Cc1cc(Nc2ncnc3[nH]ccc23)c(=O)n2c1C(=O)NC21CCC(F)(F)CC1 [Example 92, hydrochloride]" resultnumber=8.92
compound="Cc1cc(Nc2ncnc3[nH]ncc23)c(=O)n2c1C(=O)NC21CCCCC1 [Example 34, hydrochloride]" resultnumber=8.09

---

target: human full-length MKNK1 (Homo sapiens (Human), UniProt Q9BUB5, T344D); experiment: MKNK1 kinase high ATP assay (TR-FRET); format: biochemical; details: 2 mM ATP, 15 min preincubation with enzyme, GST-MKNK1 (T344D)
Could you please mark MET for values of IC50 below 6 nM and NOT MET for values at or above it?

molecule="Cc1cc(Nc2ncnc3cc(Cl)ccc23)c(=O)n2c1C(=O)NC21CCCCC1 [Example 108]" classification="NOT MET"
molecule="Cc1cc(Nc2ncnc3sc(C(=O)N4CC[C@@H](N(C)C)C4)cc23)c(=O)n2c1C(=O)NC21CCCC1 [Example 63]" classification=MET
molecule="Cc1cc(Nc2ncnc3ccc(F)cc23)c(=O)n2c1C(=O)NC21CSC1 [Example 176]" classification="NOT MET"
molecule="Cc1cc(Nc2ncnc3ccc(C(F)(F)F)cc23)c(=O)n2c1C(=O)NC21CCCCC1 [Example 124]" classification="NOT MET"
molecule="Cc1cc(Nc2ncnc(N)n2)c(=O)n2c1C(=O)N[C@]21CC[C@@](O)(C(F)(F)F)CC1 [Example 190]" classification="NOT MET"
molecule="Cc1cc(Nc2ncnc3scnc23)c(=O)n2c1C(=O)NC21CSC1 [Example 173]" classification=MET
molecule="CCCNC(=O)Nc1nccc(Nc2cc(C)c3n(c2=O)C2(CCCCC2)NC3=O)n1 [Example 23]" classification="NOT MET"
molecule="Cc1cc(Nc2ncnc3sc(C(=O)N4C[C@@H]5C[C@H]4CN5C)cc23)c(=O)n2c1C(=O)NC21CCCCC1 [Example 43]" classification=MET
molecule="Cc1cc(Nc2ncnc3sc(C(=O)N4CC(NC(=O)OC(C)(C)C)C4)cc23)c(=O)n2c1C(=O)NC21CCCC1 [Example 62]" classification=MET
molecule="Cc1cc(Nc2ncnc3sc(C(=O)N4CCC(N(C)C)CC4)cc23)c(=O)n2c1C(=O)NC21CCCC1 [Example 64]" classification=MET
molecule="CC(=O)N1Cc2ncnc(Nc3cc(C)c4n(c3=O)C3(CCCCC3)NC4=O)c2C1 [Example 78]" classification="NOT MET"
molecule="Cc1cc(Nc2ncnc3ccc(Cl)cc23)c(=O)n2c1C(=O)N[C@]21CC[C@@](O)(C(F)(F)C(F)(F)F)CC1 [Example 195]" classification="NOT MET"
molecule="Cc1cc(Nc2ncnc3sc(C(=O)NCCN(C)C)cc23)c(=O)n2c1C(=O)NC21CCC1 [Example 151]" classification=MET
molecule="Cc1cc(Nc2ncnc(N)n2)c(=O)n2c1C(=O)NC21CCC(O)(C(F)(F)F)CC1 (centres unmarked) [Example 127]" classification="NOT MET"
molecule="Cc1cc(Nc2ncnc3sc(C(=O)N4CCN(C)CC4)c(C)c23)c(=O)n2c1C(=O)NC21CCCCC1 [Example 19]" classification="NOT MET"
molecule="Cc1cc(Nc2ncnc(N)n2)c(=O)n2c1C(=O)NC21CCCC1 [Example 54]" classification=MET
molecule="Cc1cc(Nc2ncnc3sccc23)c(=O)n2c1C(=O)NC21CCC(F)(F)CC1 [Example 89]" classification="NOT MET"
molecule="Cc1cc(Nc2ncnc3c2CNC3)c(=O)n2c1C(=O)NC21CCC1 [Example 168]" classification="NOT MET"
molecule="Cc1cc(Nc2ncnc3sc(C(=O)N4C[C@H]5C[C@@H]4CO5)cc23)c(=O)n2c1C(=O)NC21CCC1 [Example 158]" classification=MET
molecule="Cc1cc(Nc2ncnc3[nH]ccc23)c(=O)n2c1C(=O)NC21CCC(O)(C(F)(F)F)CC1 (centres unmarked) [Example 128]" classification=MET
molecule="Cc1cc(Nc2ncnc3ccc(Cl)cc23)c(=O)n2c1C(=O)NC21CCC1 [Example 167]" classification=MET
molecule="Cc1cc(Nc2ncnc3sc(C(=O)N4CC(C#N)C4)cc23)c(=O)n2c1C(=O)NC21CCCCC1 [Example 26]" classification=MET
molecule="Cc1cc(Nc2ncnc3[nH]ncc23)c(=O)n2c1C(=O)NC21CCC1 [Example 160]" classification=MET
molecule="Cc1cc(Nc2ncnc3c2CN(C(=O)OC(C)(C)C)C3)c(=O)n2c1C(=O)NC21CCC(F)(F)CC1 [Example 104]" classification="NOT MET"
molecule="Cc1cc(Nc2ncnc3ccccc23)c(=O)n2c1C(=O)NC21CCCCC1 [Example 8]" classification="NOT MET"
molecule="Cc1cc(Nc2ncnc3sccc23)c(=O)n2c1C(=O)NC21CCC(O)(C(F)(F)F)CC1 (centres unmarked) [Example 130]" classification="NOT MET"
molecule="COc1cccc2ncnc(Nc3cc(C)c4n(c3=O)C3(CCCCC3)NC4=O)c12 [Example 118]" classification="NOT MET"
molecule="COc1ccc2c(Nc3cc(C)c4n(c3=O)C3(CCCCC3)NC4=O)ncnc2c1 [Example 116]" classification=MET
molecule="Cc1cc(Nc2ncnc(NC(=O)C3CC3)n2)c(=O)n2c1C(=O)NC21CCCCC1 [Example 1]" classification=MET
molecule="COCCN(C)C(=O)c1sc2ncnc(Nc3cc(C)c4n(c3=O)C3(CCCCC3)NC4=O)c2c1C [Example 18]" classification="NOT MET"
